# SYSTEM NAME: Human Recombinant Cathepsin K (Homo sapiens, UniProt P43235)
# Sequence (P43235 115-329): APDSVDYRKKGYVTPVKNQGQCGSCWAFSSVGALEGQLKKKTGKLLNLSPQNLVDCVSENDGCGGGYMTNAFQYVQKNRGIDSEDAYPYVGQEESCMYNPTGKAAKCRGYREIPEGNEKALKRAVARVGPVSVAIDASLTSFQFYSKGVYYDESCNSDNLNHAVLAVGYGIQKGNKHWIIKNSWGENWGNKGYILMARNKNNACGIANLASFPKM
# ASSAY NAME: Cathepsin selectivity screening, Cat K (Z-Phe-Arg-AMC)
# Type: biochemical
# EXPERIMENTAL CONTEXT: Z-Phe-Arg-AMC substrate; Table 5; read-out: IC50 (μM) CatK
RESULT TYPE: log10 IC50 (log10 of the value in µM)
Parameter value (number): base-10 log of IC50 in µM.

INSERT INTO results (compound, system_name, numeric_value) VALUES
  ('COc1ccc(-c2ccc(C(=O)N[C@@H](CC3CCCCC3)C(=O)N[C@H](C#N)C[C@@H]3CCNC3=O)c(Cl)c2)cc1 [23c]', 'Human Recombinant Cathepsin K (Homo sapiens, UniProt P43235)', 0.18),
  ('COc1ccc(-c2ccc(C(=O)N3C[C@H]4[C@@H]([C@H]3C(=O)N[C@H](C#N)C[C@@H]3CCNC3=O)C4(C)C)c(Cl)c2)cc1 [22e]', 'Human Recombinant Cathepsin K (Homo sapiens, UniProt P43235)', 0.32),
  ('COc1cccc(-c2ccc(C(=O)N3C[C@H]4[C@@H]([C@H]3C(=O)N[C@H](C#N)C[C@@H]3CCNC3=O)C4(C)C)c(Cl)c2)c1 [22f]', 'Human Recombinant Cathepsin K (Homo sapiens, UniProt P43235)', 0.66);

# batch: return log10 IC50 for each of the 5 compounds below
1. COc1cccc(-c2ccc(C(=O)N[C@@H](CC3CCCCC3)C(=O)N[C@H](C#N)C[C@@H]3CCNC3=O)c(F)c2)c1 [23b]
2. COc1cccc(-c2ccc(C(=O)N[C@@H](CC(C)C)C(=O)N[C@H](C#N)C[C@@H]3CCNC3=O)c(Cl)c2)c1 [18n]
3. COc1ccc(-c2ccc(C(=O)N3C[C@@H]4CCC[C@@H]4[C@H]3C(=O)N[C@H](C#N)C[C@@H]3CCNC3=O)c(Cl)c2)cc1 [22k]
4. COc1ccc(-c2ccc(C(=O)N[C@@H](CC3CCCCC3)C(=O)N[C@H](C#N)C[C@@H]3CCNC3=O)cc2)cc1 [12l]
5. COc1cccc(-c2ccc(C(=O)N[C@@H](CC3CCCCC3)C(=O)N[C@H](C#N)C[C@@H]3CCNC3=O)c(Cl)c2)c1 [23d]

[0.13, -0.48, -0.17, 0.21, -0.05]

Bench note, Human Recombinant Cathepsin K (Homo sapiens, UniProt P43235): entry COc1cccc(-c2ccc(C(=O)N3C[C@@H]4CCC[C@@H]4[C@H]3C(=O)N[C@H](C#N)C[C@@H]3CCNC3=O)c(Cl)c2)c1 [22l] , its log10 IC50 = 0.03

---

# SYSTEM NAME: PL^Pro (Severe acute respiratory syndrome coronavirus 2, UniProt P0DTD1)
# ASSAY NAME: SARS-CoV-2 PLpro screening (Ac-LRGG-ACC substrate)
# Type: biochemical
# EXPERIMENTAL CONTEXT: read-out: PL^Pro (%inh)@10μM
Can you tell me inhibition at 10 µM for the items I'm about to list?

INSERT INTO results (molecule, result_type, result) VALUES
  ('CC(C)C[C@H](NC(=O)c1ccc(-c2ccc3c(cnn3C)c2)cc1)C(=O)N[C@H](C#N)C[C@@H]1CCNC1=O [6l]', 'inhibition at 10 µM', '< 50%'),
  ('COc1ccc(-c2ccc(C(=O)N[C@@H](CC(C)C)C(=O)N[C@H](C#N)C[C@@H]3CCNC3=O)cc2)cn1 [6k]', 'inhibition at 10 µM', '< 50%'),
  ('COc1cccc(-c2ccc(C(=O)N[C@@H](CC(C)C)C(=O)N[C@H](C#N)C[C@@H]3CCNC3=O)cc2)c1 [6e]', 'inhibition at 10 µM', '< 50%'),
  ('CCC[C@H](NC(=O)c1ccc(-c2ccc(OC)nc2)cc1)C(=O)N[C@H](C#N)C[C@@H]1CCNC1=O [12j]', 'inhibition at 10 µM', '< 50%'),
  ('CC(C)C[C@H](NC(=O)c1ccc(-c2ccc(Cl)cc2)cc1)C(=O)N[C@H](C#N)C[C@@H]1CCNC1=O [6a]', 'inhibition at 10 µM', '< 50%'),
  ('CC(C)C[C@@H](NC(=O)c1ccc(-c2ccc(F)nc2)cc1)C(=O)N[C@H](C#N)C[C@@H]1CCNC1=O [12c]', 'inhibition at 10 µM', '< 50%');

Turning to the following molecule.
Value of measured inhibition at 10 µM for the entry CC(C)C[C@@H](NC(=O)c1ccc(Br)cc1)C(=O)N[C@H](C#N)C[C@@H]1CCNC1=O [11b] : < 50%
